property name: melting point

// worked examples, melting point included
                                   molecule    test_result
0  CC(=O)Nc1ccc(NC(=O)C=C2CC(C(=O)O)Nc3cc(Cl)cc(Cl)c32)cc1 (racemic)         185 °C
1    Oc1c(C(=Nc2ccccc2)Nc2ccccc2)sc2ccccc12  152 to 153 °C
2                COc1ccc2c(Cl)nc(Cl)nc2c1OC  153 to 155 °C

Record CC12CCC3C(CCC4CC(O)CCC43C)C1CCC2=S (stereo not given) , field melting point: 172 to 173 °C

Record CCCCCCCCCCCC(=O)c1cn(S(=O)(=O)c2ccc(C)cc2)c2ccccc12 , field melting point: 79 to 80 °C

Record O=C(CCCC1CCCCC1)N[C@H]1CO[C@H]2[C@@H]1OC[C@@H]2NC(=O)C1CC1 , field melting point: 182 °C

Record CN(C)Cc1ccc2c(c1)Cc1c(-c3cccs3)n[nH]c1-2 , field melting point: 204 to 206 °C
